System: Plasmodium falciparum NF54 stage V gametocytes
Assay: viability index relative to DMSO control (fraction); higher = less gametocyte killing
Details: 1.25 µM, incubation time: 72 h
In all, about 3,600 compounds were measured (“viability index relative to DMSO control”: median about 0.81, lowest 2% from about 0.13 on). The sample holds the lowest values, similar compounds and a random draw of the others, so the mix is not that of the screen.
test_readout: viability index
Reply with just the number.

CCCNC1=C(N(C(C)=O)c2cccc(F)c2)C(=O)c2ccccc2C1=O = 0.0245
CC(=O)N(C1=C(N2CCCC2)C(=O)c2ccccc2C1=O)c1ccc(I)cc1 = 0.879
O=[N+]([O-])c1ccc(N2CCCN(C(=S)Nc3ccccc3)CC2)nc1 = 0.0788

// viability index lookup, key: Cc1cccc(NC(=O)C2C3C=CC4(O3)C2C(=O)N(CC2COc3ccccc3O2)C4C(=O)NC2CCCC(C)C2C)c1 (stereo not drawn) 1.33

Can you look up the measured viability index of Cc1cc(C)cc(NC2=C(N)C(=O)c3ccccc3C2=O)c1 for me? 0.707

###

Test system: Plasmodium falciparum NF54 stage V gametocytes
Assay: viability index relative to DMSO control (fraction); higher = less gametocyte killing
Settings: 1.25 µM, incubation time: 72 h
Over roughly 3,600 compounds, “viability index relative to DMSO control” has its median near 0.81; the lowest 2% begin near 0.13. The full list was thinned out, with the lowest values kept by preference.
# viability index per entry

Sample answers from the record:
CCN(CC)S(=O)(=O)c1ccc2[nH]cc(C(=O)NCCCN3CCN(c4ccc(OC)cc4)CC3)c(=O)c2c1 = 1.14
O=C(Nc1ccc(-c2nc3cc(NC(=O)C(c4ccccc4)c4ccccc4)ccc3[nH]2)cc1)C(c1ccccc1)c1ccccc1 = 0.908
CCOc1ccccc1C1C(C#N)=C(SCC(=O)Nc2ccc(Cl)cc2)NC(C)=C1C(=O)Nc1ccccc1 (stereo not drawn) = 0.5
CNC(=O)c1nn(C)c2c1CC(NCC1CCCCC1)CC2 (stereo not drawn) = 0.702
O=C(Nc1ccc2nc3n(c(=O)c2c1)CCCCC3)C(=O)N1CCN(c2cccc(Cl)c2)CC1 = 0.432
CC(C)(C)NC(=S)NN=CC=NNC(=S)NC(C)(C)C = 0.299
O=C(Nc1ccc(-c2nc3cc(NC(=O)c4cccs4)ccc3[nH]2)cc1)c1cccs1 = 1.05
N=C1NC(=O)C(=CC=Cc2ccc([N+](=O)[O-])o2)S1 = 0.0408

Any idea what viability index was measured for CCC(=O)NCc1nnc(SCc2cccc(C(F)(F)F)c2)n1-c1cccc(OC)c1 ? 0.865

Could you share which viability index value was measured for CCN1CCN(c2cc(C)c3cc(NC(=O)c4cncc(Br)c4)ccc3n2)CC1 ? 0.801

What does the data say about its viability index? Entry: Cc1cccc(CCNc2cc(C)nc3ncnn23)c1 0.982

Which viability index reading was recorded for the compound CC(=O)N(C1=C(N2CCCC2)C(=O)c2ccccc2C1=O)c1ccc(F)cc1 ? 1

Value lookup for viability index; key = CN(C)CCNc1cc(-c2ccccc2)nc2ccccc12 0.909

Looking for the measured viability index of COc1cc(C(c2c(C)n(C)n(-c3ccccc3)c2=O)c2c(C)n(C)n(-c3ccccc3)c2=O)cc(Cl)c1OCc1ccccc1 , can you help? 0.699

Returns the measured viability index for the input compound. Input: O=C(Nc1ccc(-c2nc3ccccc3[nH]2)cc1)c1ccc(Cl)c(Cl)c1 1.03

Return reported viability index; argument: CN(C)CCCNc1cc(-c2ccccc2)nc2ccccc12 0.913

Using the record for O=C(Nc1ccc(Oc2ccc(OC(F)(F)F)cc2)cc1)C1CC1 , report its viability index. 0.693

For O=C(C=Cc1ccccc1)Nc1ccc(-c2nc3cc(NC(=O)C=Cc4ccccc4)ccc3[nH]2)cc1 , what is its reported viability index? 0.11

# viability index lookup, item COc1cccc(CNc2cc(C(=O)NCCNC(C)=O)cc(S(=O)(=O)N(C)C)c2)c1OC 1.32

I would be grateful if you could share the reported viability index for CN(C)CCNc1cc(-c2ccc3ccccc3c2)nc2ccccc12 . 0.0331

###

Tested on: Plasmodium falciparum NF54 stage V gametocytes
Test: viability index relative to DMSO control (fraction); higher = less gametocyte killing
Conditions: 1.25 µM, incubation time: 72 h
Over roughly 3,600 compounds, “viability index relative to DMSO control” has its median near 0.81; the lowest 2% begin near 0.13. Shown is part of a subset that was picked to be rich in the lowest values.
Category key, based on recorded viability index: low interval (below 0.3), middle interval (0.3 to below 0.8), high interval (0.8 or more)

# count of solved cases: 10
COc1cc(C=C(C#N)c2nc3ccccc3[nH]2)ccc1OCc1ccccc1Cl = middle interval
CCOC(=O)c1c(C)oc2c1C(=O)c1ccccc1C2=O = high interval
CC(C)CN1C(=O)c2ccccc2C(C(=O)Nc2ccc(C(C)C)cc2)C1c1cccs1 (centres undefined) = low interval
CC(C)c1ccc2c(c1)c1c3c([n+](C)ccn32)CCC1 = high interval
CCN1CCC(NC2CCCc3c2[nH]c2ccc([N+](=O)[O-])cc32)CC1 (centres undefined) = high interval
COc1ccc(Cl)cc1NC(=O)C1c2ccccc2C(=O)N(CC(C)C)C1c1cccs1 (centres undefined) = middle interval
CC(=O)N(C1=C(N(C)C)C(=O)c2ccccc2C1=O)c1cc(C)cc(C)c1 = low interval
Cc1oc2c(c1C(=O)N1CCN(C)CC1)C(=O)c1ccccc1C2=O = middle interval
CC(=O)N(C1=C(N2CCC(C)CC2)C(=O)c2ccccc2C1=O)c1cccc(F)c1 = high interval
c1ccc(CNc2nc(-c3ccccn3)nnc2-c2ccccc2)cc1 = middle interval

Consider COc1ccc(NC(=O)C2c3ccccc3C(=O)N(CC(C)C)C2c2cccs2)cc1Cl (centres undefined) . To which viability index class does it belong? low interval

Category lookup for the molecule COc1ccccc1NC1=CC(=NS(=O)(=O)c2ccc(F)cc2)c2ccccc2C1=O low interval

Would you mind sorting O=C(O)c1ccc(S(=O)(=O)c2ccc3c(c2)C(=O)N(c2ccc(Sc4ccc([N+](=O)[O-])cc4)cc2)C3=O)cc1 into the appropriate category? high interval

Tag the class for COc1cnc(-c2ccccn2)nc1N1CCCC1 low interval

Into which category would you place CC(C)CN1C(=O)c2ccccc2C(C(=O)Nc2ccc(F)c(Cl)c2)C1c1cccs1 (centres undefined) ? low interval

Kindly identify the class of O=C1CN(C(=O)CCC2CCCC2)C(c2ccc(F)cc2)c2cc(Cl)ccc2N1 (centres undefined) . middle interval

Lab log: CC(=NNC(N)=S)C(C)=NNC(N)=S — assign viability index category low interval

GET /class?item= C(=NNc1nc2ccccc2[nH]1)c1c[nH]c2ccccc12 middle interval

###

System: Plasmodium falciparum NF54 stage V gametocytes
Assay: viability index relative to DMSO control (fraction); higher = less gametocyte killing
Conditions: 1.25 µM, incubation time: 72 h
Over roughly 3,600 compounds, “viability index relative to DMSO control” has its median near 0.81; the lowest 2% begin near 0.13. This is one part of a sample in which the lowest values are shown more often than they occur.
In this section we review reported viability index values for a set of molecules.

CCOC(=O)C1=C(C)N=c2sc(=Cc3cccc(OCc4cccc5ccccc45)c3)c(=O)n2C1c1ccc(OC)cc1OC (centres undefined) = 0.924

What viability index value was documented for this molecule, O=C1CC(c2cccc([N+](=O)[O-])c2)c2cc3c(cc2N1)OCO3 (centres undefined) ? 0.839

Please look up its viability index: CC(=O)NC1=NN(C(C)=O)C(c2ccc(Br)cc2)S1 (centres undefined) 0.944

May I ask what viability index has been recorded for N#Cc1cc2nc3c(nc2cc1C#N)-c1ccccc1C3=O ? 0.0308

# query: viability index of entry CCC(CC)=NNC(=O)C(=O)NC1CCCCC1 1.13

Quick check: viability index of CCOC(=O)c1ccc2nc3c(nc2c1)C(=O)c1ccccc1C3=O ? 0.359

Using the record for Cc1ccc(-c2cc3c(nn2)-c2ccccc2C3=O)cc1 , report its viability index. 0.65

Recorded viability index for C=CCN1C(=O)C(=C2Sc3ccc(OC)cc3N2C)SC1=Nc1ccccc1-c1ccccc1 , please? 0.448

Could you tell me which viability index is on file for COc1cc2c(-c3cc(Br)ccc3O)nc3c(c(Cc4ccccc4)nn3-c3ccccc3)c2cc1OC ? 0.595

###

System: Plasmodium falciparum NF54 stage V gametocytes;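 also: Saponin-lysis sexual stage assay in serum-free medium: MitoTracker Red CMXRos staining plus saponin, high-content imaging, particle count per well divided by plate mean of DMSO wells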
Assay: viability index relative to DMSO control (fraction); higher = less gametocyte killing
Settings: 1.25 µM, incubation time: 72 h
In all, about 3,600 compounds were measured (“viability index relative to DMSO control”: median about 0.81, lowest 2% from about 0.13 on). The sample holds the lowest values, similar compounds and a random draw of the others, so the mix is not that of the screen.
test_readout: viability index
Just the number, please.

// worked examples, viability index included
CCN(CC)c1ccc(C=C(C#N)c2nc3ccccc3[nH]2)o1 = 0.609
CCOC(=O)c1cnc2c(OC)cccc2c1Nc1ccc(C(C)=O)cc1 = 1.27
N#Cc1c(-c2ccccc2)cc(N2CCN(C3CCCCC3)CC2)n2c1nc1ccccc12 = 0.822

Field request: viability index | item: O=[N+]([O-])c1cc(C(F)(F)F)cc([N+](=O)[O-])c1Sc1cccc2cccnc12 0.0789

Quick one: viability index of COCCCNC(=O)C=Cc1ccc(C(C)C)cc1 ? 0.976
